src = ChEMBL document CHEMBL4689842

Task for the reader: assign each of the following molecules its reported Population Fragmented Nuclei (%).
# Tested on: HEK-293T
# Assay method text: Multiplex assay against HEK293T
# Format: toxicity, cell-based
# Test conditions: human, 12 h, 10 µM, compound concentration 10 uM, replicate 1
Just the number in %, nothing appended.

Request: I am curious: what Population Fragmented Nuclei (%) value has been reported for `CC[C@@H]1C(=O)N(C)c2cnc(Nc3ccc(C(=O)NC4CCN(C)CC4)cc3OC)nc2N1C1CCCC1` ?
Result: 17

Request: Please report the recorded Population Fragmented Nuclei (%) for `Cc1c(P(=S)(c2ccccc2)c2ccccc2)n2ccccc2[n+]1C/C=C/c1ccccc1.[Br-]` .
Result: 31

Request: Which Population Fragmented Nuclei (%) reading was recorded for the molecule `CCOc1ccn(-c2ccc(F)cc2)c(=O)c1C(=O)Nc1ccc(Oc2ccnc(N)c2Cl)c(F)c1` ?
Result: 25

Request: Data request, read-out Population Fragmented Nuclei (%), for `Cl.NC[C@@H]1O[C@H](C23CC4CC(CC(C4)C2)C3)Cc2c1ccc(O)c2O`
Result: 10

Request: May I ask what Population Fragmented Nuclei (%) has been recorded for `Cc1ccc(S(=O)(=O)NC2c3ccccc3Oc3ccccc32)cc1` ?
Result: 32

Request: Looking for the measured Population Fragmented Nuclei (%) of `NC(=O)c1ccc2nc(-c3ccc(C4(N)CCC4)cc3)c(-c3ccccc3)n2n1` , can you help?
Result: 17

Request: Name the recorded Population Fragmented Nuclei (%) for `Cc1c(Nc2ccc(S(=O)(=O)N3CCN(C)CC3)cc2F)nc2ccc(Nc3cnn(C4CC4)c3)cn2c1=O` .
Result: 11

Request: Need Population Fragmented Nuclei (%), item `Oc1cccc(-c2nc(N3CCOCC3)c3oc4ncccc4c3n2)c1`
Result: 14

Request: Requested read-out: Population Fragmented Nuclei (%). Entry: CCCCCNC(=N)N/N=C/c1c[nH]c2ccc(OC)cc12.O=C(O)/C=C\C(=O)O [TEGASEROD MALEATE]
Result: 27

Request: Name the recorded Population Fragmented Nuclei (%) for `CC(C)[C@H](CO)Nc1nc(Nc2cccc(Cl)c2)c2ncn(C(C)C)c2n1` .
Result: 7

Request: Fill in: Population Fragmented Nuclei (%) of `CCCCN(CC)c1nc(C)nc2c1c(C)cn2-c1c(C)cc(C)cc1C.Cl` is ___
Result: 13

Request: Which Population Fragmented Nuclei (%) is reported for this molecule? `CC[C@@]1(O)C(=O)OCc2c1cc1n(c2=O)Cc2cc3ccccc3nc2-1`
Result: 15

====

# System: U2OS
# Assay method text: Incucyte cell viability with U2OS; also: filed as whole numbers so only -1 and 0 and 1 occur
# Assay type: toxicity, cell-based
# Test conditions: human, 12 h, 10 µM, compound concentration 10 uM, replicate number 1, timepoint 12 hours
Would you kindly list Growth Rate for each of these compounds?
Lab note: write the figure by itself, no unit.

Request: Can you share its Growth Rate? I mean this compound: `O=C(O)[C@H]1[C@H](Cn2nnc3ccccc3c2=O)CC[C@@H]1C(=O)c1ccc(OCCC2CCOCC2)cc1`
Result: 1

Request: Give the measured Growth Rate of CN(C)CCCN1c2ccccc2CCc2ccccc21.Cl [IMIPRAMINE HYDROCHLORIDE] .
Result: 1

Request: Please give the measured Growth Rate for this compound: `NS(=O)(=O)c1cc(NC(=O)Cc2ccccc2)ccc1Oc1cccc(Cl)c1`
Result: 1

Request: # input compound: `Cc1c(P(=S)(c2ccccc2)c2ccccc2)n2ccccc2[n+]1C/C=C/c1ccccc1.[Br-]` ; wanted: its Growth Rate
Result: 0

Request: Name the reported Growth Rate value associated with the compound `CCOC(=O)c1ccc(C#Cc2ccc3c(c2)C(C)(C)CCS3)nc1`
Result: 0

Request: Item `Cc1c(F)cccc1NC(=O)Nc1ccc(Cl)c(S(=O)(=O)[C@H]2CCCNC2)c1O` has what recorded Growth Rate?
Result: 0

Request: Any idea what its Growth Rate is? The compound is `O=C(N1CCS(=O)(=O)CC1)N1C[C@H](c2ccc(OC(F)(F)F)cc2)C[C@H](c2nc(C3CC3)no2)C1`
Result: 0

Request: Record request: Growth Rate value, item `CCN(Cc1ccc(Cl)cc1)c1ncc(C(=O)NCCCN2CCCC2=O)c(NC2CCCC2)n1`
Result: 1

Request: Quick one: Growth Rate for `c1cc(CN2CCCNCCNCCCNCC2)ccc1CN1CCCNCCNCCCNCC1` ?
Result: 1

Request: Please look up its Growth Rate: `CC[C@H](Nc1ncnc2[nH]cnc12)c1nc2cccc(F)c2c(=O)n1-c1ccccc1`
Result: 1

Request: Sample `COc1ccc2c(c1)O[C@H](c1ccc(OC)c(OC)c1)C[C@@H]2NC(=O)C1(c2ccc3c(c2)OC(F)(F)O3)CC1` — what was its Growth Rate?
Result: 1

Request: I would be grateful if you could share the reported Growth Rate for `Cc1c(Nc2ccc(S(=O)(=O)N3CCN(C)CC3)cc2F)nc2ccc(Nc3cnn(C4CC4)c3)cn2c1=O` .
Result: 0

Request: Which Growth Rate reading was recorded for the compound `C/C(=C/C=C/C(C)=C/C(=O)O)c1cc(C(C)(C)C)cc(C(C)(C)C)c1OCC(F)F` ?
Result: 1

Request: Tell me the measured Growth Rate of `Cn1cc(Cl)c2c(Oc3c(F)cc(Nc4cc(Cl)nc(N)n4)cc3F)ccnc21` , please.
Result: 1

Request: Field request: Growth Rate | item: COc1cc(C)c(Sc2cnc(NC(=O)c3ccc(CNC(C)C(C)(C)C)cc3)s2)cc1C(=O)N1CCN(C(C)=O)CC1 (stereo not given)
Result: 0

Request: Which Growth Rate reading was recorded for the compound `O=C(NNS(=O)(=O)c1ccccc1)c1cc(-c2ccnnc2)ccc1F` ?
Result: 0

Request: GET /values?readout=Growth Rate&item= `C[C@H](NC(=O)Nc1cc2[nH]ncc2c(CO)n1)c1ccccn1`
Result: 0

Request: Entry `CNC(=O)Nc1ccc2c(c1)CC[C@@]21OC(=O)N(CC(=O)N(Cc2ccc(F)cc2)[C@@H](C)C(F)(F)F)C1=O` has what Growth Rate?
Result: 1

Request: Need Growth Rate, item `Cl.O=C(Cc1ccc(Cl)c(Cl)c1)N1CCCC[C@H]1CN1CCCC1`
Result: 1

Request: Bench note: what Growth Rate did `CCOc1ccn(-c2ccc(F)cc2)c(=O)c1C(=O)Nc1ccc(Oc2ccnc(N)c2Cl)c(F)c1` show?
Result: 0

Request: Looking for the measured Growth Rate of `CCOC(=O)c1ncn2c1CN(C)C(=O)c1cc(F)ccc1-2` , can you help?
Result: 0

Request: Which value of Growth Rate has been reported for `CC(/C=C1\SC(=S)N(CCCC(=O)Nc2ccc(C(=O)O)c(O)c2)C1=O)=C\c1ccccc1` in the records?
Result: 1

Request: # get_value(readout='Growth Rate', item= `Cc1cc2c(cc1-c1cc(/C=C/C(=O)O)ccc1O)C(C)(C)CCC2(C)C` )
Result: 1

Request: Item under review: `CCCCN(Cc1ccccc1)C(=O)c1ccc(S(=O)(=O)Nc2ccccc2)cc1` . Reported Growth Rate?
Result: 1

Request: So what does the record say about Growth Rate for `Cc1c(C2=CCN(C(=O)N(C)C(C)C)CC2)nnn1-c1cccnc1F` ?
Result: 1

Request: Entry `CC[C@@H]1CN(C(=O)NCC(F)(F)F)C[C@@H]1c1cnc2cnc3[nH]ccc3n12` has what Growth Rate?
Result: 0

Request: What does the record list as Growth Rate for CCN1CCC[C@H]1CNC(=O)c1c(OC)ccc(Br)c1OC [REMOXIPRIDE] ?
Result: 0

Request: Query: Growth Rate; subject: `Cc1cc2c(cc1C1(c3ccc(C(=O)O)cn3)CC1)C(C)(C)CCC2(C)C`
Result: 1

Request: Look at this compound and give its reported Growth Rate. `COc1ncc(F)cc1CNc1ccc(Cc2c[nH]c3ncc(C)cc23)c(F)n1`
Result: 0

Request: Please look up its Growth Rate: CN(CCOc1ccc(CC2SC(=O)NC2=O)cc1)c1ccccn1 (stereo not given)
Result: 1

====

# Tested on: U2OS
# Assay method text: Multiplex assay against U2OS
# Format: toxicity, cell-based
# Test conditions: human, 24 h, 10 µM, compound concentration 10 uM, replicate 1
For each of the compounds below, state its Population Fragmented Nuclei (%).
Only the number, expressed in %, is required.

Request: Entry `CCOC(=O)CCNc1cc(N2CCc3ccccc3CC2)nc(-c2ccccn2)n1` has what Population Fragmented Nuclei (%)?
Result: 7

Request: # get_value(readout='Population Fragmented Nuclei (%)', item= CC[C@@]1(O)C(=O)OCc2c1cc1n(c2=O)Cc2cc3ccccc3nc2-1 [CAMPTOTHECIN] )
Result: 21

Request: # lookup: Population Fragmented Nuclei (%) of CN1C(=O)[C@@H](NC(=O)c2cc3ccccc3[nH]2)N=C(c2ccccc2)c2ccccc21 [DEVAZEPIDE]
Result: 22

Request: I'd like to know its Population Fragmented Nuclei (%). The compound in question is Cl.Cn1c2c(c3ccc(Cl)c(Cl)c31)C(C#N)C1(CCNCC1)NC2=O (stereo unspecified)
Result: 37

Request: Recorded Population Fragmented Nuclei (%) of N#CCNC(=O)c1ccc(-c2ccnc(Nc3ccc(N4CCOCC4)cc3)n2)cc1 [MOMELOTINIB] , please.
Result: 20

Request: Can you share its Population Fragmented Nuclei (%)? I mean this compound: `Cc1c(P(=S)(c2ccccc2)c2ccccc2)n2ccccc2[n+]1C/C=C/c1ccccc1.[Br-]`
Result: 34
